- method.description: qHTS of pediatric cancer cell lines to identify multiple opportunities for drug repurposing: Confirmatory screen for OHS-50 cells (AID 1347128);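 also: compound exposure lasted 48 h at 37 degrees C; nearly all actives have a fitted effect of over 55% in size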
- assay.setup: OHS-50 osteosarcoma cells viability; series mostly up to 45.9 µM
Inconclusive results are not listed. The source made the active and inactive calls. Calls follow the shape of the dose curve; as a rule, active = well fitted cell-killing curve with a large enough effect; inconclusive = small, poorly fitted or top-dose-only effect, or effect the other way; inactive = no such curve, though single readings can be large or run the other way.
Outcome codes: Yes (active), No (inactive)

In [3]: df
Out[3]:
                                   compound  class_name
0               CCC1(c2cnc[nH]2)Cc2ccccc2C1          No
1  C[C@H]1C[C@@H]2[C@H]([C@@H](O)C[C@@]3(C)[C@H]2CC[C@]3(O)C(=O)CO)[C@@]2(C)C=CC(=O)C=C12          No
2  CCN(CC)CC(=O)OCC(=O)[C@@]1(O)CC[C@H]2[C@@H]3CCC4=CC(=O)CC[C@]4(C)[C@H]3[C@@H](O)C[C@@]21C          No
3  CCCC(=O)O[C@]1(C(=O)COC(=O)CC)CC[C@H]2[C@@H]3CCC4=CC(=O)CC[C@]4(C)[C@H]3[C@@H](O)C[C@@]21C          No
4                  Nc1ccc2cc3ccc(N)cc3nc2c1         Yes
5                     Nc1c2ccccc2nc2ccccc12         Yes
6  CCC(=O)O[C@]1(C(=O)COC)[C@@H](C)C[C@H]2[C@@H]3CCC4=CC(=O)C=C[C@]4(C)C3(F)[C@@H](O)C[C@@]21C (some centres undefined)          No
7  CC[C@@]1(O)C(=O)OCc2c1cc1n(c2=O)Cc2c-1nc1ccccc1c2/C=N/OC(C)(C)C         Yes
8  CCCCC(CC)CNC(=O)CC(C)OC(=O)CCC(=O)O (centres undefined)          No

----------
- Tested on: MKL-1
- method.description: qHTS assay to identify novel small-molecules to repurpose for Merkel cell carcinoma treatment (AID 1296009); also: nearly all actives have a fitted effect of over 60% in size
- assay.setup: MCC and control cell lines, CellTiter-Glo viability, 72 h; series mostly up to 46 µM
Inconclusive results are not listed. The source made the active and inactive calls. Calls follow the shape of the dose curve; as a rule, active = well fitted inhibition curve with a large enough effect; inconclusive = small, poorly fitted or top-dose-only effect; inactive = flat fitted curve, though single readings scatter.
Possible outcomes: class 1 for active, class 0 for inactive

>>> print(df.to_string())
                                    compound  class_name
 0  CCOC(=O)c1cc(=O)c2c(OCC(COc3cccc4oc(C(=O)OCC)cc(=O)c34)OC(=O)[C@@H](N)CCCCN)cccc2o1     class 0
 1  O=C(OCC1(COC(=O)c2cccnc2)CCCC(COC(=O)c2cccnc2)(COC(=O)c2cccnc2)C1O)c1cccnc1     class 0
 2              N#CC1(c2ccc(F)cc2)CCC(=O)CC1     class 0
 3                      Cc1c(N)cccc1C(F)(F)F     class 0
 4  O=[N+]([O-])c1nccn1CO[C@@H](CO)[C@H](O)CO     class 0
 5  COCCc1ccc(OCC2CO2)cc1 (stereo not given)     class 0
 6  O=c1[nH]c(=O)n([C@H]2O[C@H](CO)[C@@H](O)[C@@H]2O)cc1/C=C\Br     class 0
 7    CNC[C@H](O)[C@@H](O)[C@H](O)[C@H](O)CO     class 0
 8       CC(C)(C)c1nnc(NS(=O)(=O)c2ccccc2)s1     class 0
 9             COC(=O)c1cc(S(N)(=O)=O)ccc1OC     class 0
10         CN1CCC(=C2c3ccccc3CCc3cccnc32)CC1     class 0
11  Nc1c(I)cc(I)c(C(=O)N(CCC(=O)O)c2ccccc2)c1I     class 0
12                      CN1C(=O)c2ccccc2C1=O     class 0
13       CCCCCCCCCCCCCCCC[N+](C)(C)Cc1ccccc1     class 1
14  CO/N=C(/C(=O)N[C@@H]1C(=O)N2C(C(=O)O)=C(Cn3nnc(C)n3)CS[C@H]12)c1csc(N)n1     class 0
15         Nc1ccc([N+](=O)[O-])c(C(F)(F)F)c1     class 0
16            COC(=O)c1cc(Cl)c(NC(C)=O)cc1OC     class 0
17  Cc1nc([N+](=O)[O-])cn1-c1ccc([N+](=O)[O-])cc1     class 0
18  Cc1ccc(C(C)OC(=O)C2(C)CCC(C(=O)O)C2(C)C)cc1 (stereo not given)     class 0
19                COC(=O)c1ccc(NC(C)=O)cc1OC     class 0
20                        C1N2CN3CN1CN(C2)C3     class 0
21  O=C(COCCOCCOCC(=O)Nc1c(I)cc(I)c(C(=O)O)c1I)Nc1c(I)cc(I)c(C(=O)O)c1I     class 0
22  CC(CCc1ccc2c(c1)OCO2)NN (stereo not given)     class 0
23      O=P(O)(O)OCC(O)CO (stereo not given)     class 0
24           CCN(CC)CC(=O)Oc1ccc(NC(C)=O)cc1     class 0
25                   Cc1ncc([N+](=O)[O-])n1C     class 0
26  COc1c(C)c2c(c(O)c1C/C=C(\C)CCC(=O)OCCN1CCOCC1)C(=O)OC2     class 0
27            CN1CCC(N(Cc2cccs2)c2ccccc2)CC1     class 0
28  CCOC(=O)Oc1ccc(CCNC(=O)[C@H](CCSC)NC(C)=O)cc1OC(=O)OCC     class 0
29  CC(=O)OCC(=O)[C@@]1(O)CCC2C3CCC4=CC(=O)CC[C@]4(C)C3[C@@H](O)C[C@@]21C (stereo not given in full)     class 0
30  COc1cc(C(=O)NC2CCCNC2)cc(OC)c1OC (stereo not given)     class 0
31              CCCCOC(=O)CCCCCCCCC(=O)OCCCC     class 0
32                  CCOC(=O)NNc1nncc2ccccc12     class 0
33                   CCc1cccc2c(CCO)c[nH]c12     class 0
34  COc1ccc2c(c1)c(CC(=O)OC/C=C(\C)CC/C=C(\C)CCC=C(C)C)c(C)n2C(=O)c1ccc(Cl)cc1     class 0
35  CCC(=O)Oc1ccc2c(c1)CC[C@@H]1[C@@H]2CC[C@@]2(C)[C@H]1C[C@@H](OC(=O)CC)[C@@H]2OC(=O)CC     class 0
36  CC(C)(C)CC(=O)OCC(=O)[C@@]1(O)CC[C@H]2[C@@H]3CCC4=CC(=O)C=C[C@]4(C)[C@H]3[C@@H](O)C[C@@]21C     class 0
37                Nc1nc2ccccc2n1Cc1ccc(F)cc1     class 0
38  CC[C@@H]([C@H](C)O)n1ncn(-c2ccc(N3CCN(c4ccc(OC[C@@H]5CO[C@@](Cn6cncn6)(c6ccc(F)cc6F)C5)cc4)CC3)cc2)c1=O     class 0
39                         Oc1ccccc1-c1nnco1     class 0
40                   c1ccc2c(c1)CCc1ccccc1N2     class 0
41                Cc1ccc2c(Cl)cc(Cl)c(O)c2n1     class 0
42  CC(C)=CCC/C(C)=C/CC/C(C)=C/CCC(=O)OC/C=C(\C)CCC=C(C)C     class 0
43  O=C(O)[C@H](O)[C@@H](O)[C@H](O[C@@H]1O[C@H](CO)[C@H](O)[C@H](O)[C@H]1O)[C@H](O)CO     class 0
44  CCCCC(CC)COC(=O)c1ccccc1C(=O)O (stereo not given)     class 0

----------
- method.description: qHTS of pediatric cancer cell lines to identify multiple opportunities for drug repurposing: Primary screen for BT-12 cells (AID 1347101); also: nearly all actives have a fitted effect of over 25% in size
- assay.setup: BT-12 viability, CellTiter-Glo luminescence, 48 h; series mostly up to 57.3 µM
Inconclusive results are not listed. Activity calls are given as the source filed them. Calls follow the shape of the dose curve; as a rule, active = well fitted cell-killing curve with a large enough effect; inconclusive = small, poorly fitted or top-dose-only effect; inactive = flat fitted curve, though single readings scatter.
Outcomes: yes (1) = active, no (0) = inactive

compound	class.name
O=C(O)Cc1ccc(OCCNC[C@H](O)c2ccccc2)cc1	no (0)
CSCC[C@H](NC(=O)[C@H](Cc1c[nH]c2ccccc12)NC(=O)CCNC(=O)OC(C)(C)C)C(=O)N[C@@H](CC(=O)O)C(=O)N[C@@H](Cc1ccccc1)C(N)=O	no (0)
CN=C(N)NC(=O)Nc1c(C)cccc1C	no (0)
CN1Cc2cc(C(=O)N3CCC(C4CCNCC4)CC3)ccc2N[C@@H](CC(=O)O)C1=O	no (0)
CN1C(CSCC(F)(F)F)Nc2cc(Cl)c(S(N)(=O)=O)cc2S1(=O)=O (centres undefined)	no (0)
CO[C@@H]1[C@@H](OC)[C@H](C)[C@@](O)(CC(=O)O)O[C@H]1[C@H](C)[C@H]1O[C@@]2(CC[C@@](C)([C@H]3CC[C@@](C)([C@@H]4O[C@@H]([C@H]5O[C@](C)(O)[C@H](C)C[C@@H]5C)C[C@@H]4OC4C[C@H](OC)[C@@H](OC)[C@H](C)O4)O3)O2)C[C@H](O)[C@H]1C (some centres undefined)	yes (1)
CC(=O)Oc1ccc(C2(c3ccc(OC(C)=O)cc3)Oc3ccccc3NC2=O)cc1	yes (1)
CCOc1ncc(F)c(=O)[nH]1	no (0)
OCCc1ccccc1	no (0)
